# Test system: drug susceptible (D6) strain of Plasmodium falciparum
# experimental.protocol: In vitro antimalarial MSF (SyBrGreen I fluorescence) assay, D6 strain
# Format: cell-based
# particulars: Plasmodium falciparum, D6; Table 4; MSF assay; read-out: D6 IC50
pIC50: −log10 of the molar value.
pIC50 reference
measured.attribute: pIC50

| smiles.data | measured.attribute | obs.value |
| --- | --- | --- |
| O=C1C=C(OCCCCC(F)(F)F)C(=O)c2ccccc21 | pIC50 | 7.29 |
| O=C1c2ccccc2Cc2ccc(OCCCCCC(F)(F)F)cc21 | pIC50 | 6.29 |
| O=C1C=C(CCCCCC(F)(F)F)C(=O)c2ccccc21 | pIC50 | 6.08 |
| O=C1c2ccccc2Cc2ccc(O)cc21 | pIC50 | 5.08 |
| O=C1C=C(O)C(=O)c2ccccc21 | pIC50 | 5.74 |
| O=c1c2ccc(O)cc2oc2cc(OCCCCCC(F)(F)F)ccc12 | pIC50 | 6.11 |
